B1: SPDEF (parent)
chain: YPEDSSWAAKAPGASSREEPPEEP

variants of: B1; assay: protein stability index of a GFP-peptide fusion (GPS, HEK-293T) (PSI 1-6); higher = more stable; conditions: c terminus: a fixed tail appended;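 note: lentivirally expressed fusions sorted by FACS into six bins by GFP to DsRed ratio, PSI derived from sequencing read proportions per bin multiplied by bin number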
Label 1 when protein stability index >= 4; otherwise -1.

G13D : -1
P20Q : -1
E22A : 1

[in] Dear colleague, could you confirm whether A14S has protein stability index at or above 4?
[out] 1

[in] # bool: protein stability index of K10C >= 4
[out] -1
